System: EKVX
Method notes: NCI tumour cell line growth inhibition, 48 h
Active and inactive are the calls of the source. Rule as the data show it: active = GI50 up to about 1.1 µM and inactive = higher. Where a SMILES comes first, the peptide text is derived from it. [ ]: non-standard residue; d: D form. ξ: configuration not given here. ξThz(5,5-Me2) = CC1(C)SCNC1C(=O)O
Field: GI50. Provide a value for each of the compounds that follow.

C1CCNCC1.S=C(S)N1CCCCC1 tested on EKVX gave GI50: 111 µM (inactive)

CSCC[C@H](NC(=O)[C@H](CC(C)C)NC(=O)[C@H](Cc1c[nH]cn1)NC(=O)CNC(=O)C1N(C(=O)[C@@H](C)NC(=O)[C@H](Cc2c[nH]c3ccccc23)NC(=O)[C@H](CCC(N)=O)NC(=O)[C@@H](N)CC(N)=O)CSC1(C)C)C(N)=O (stereo partly drawn) (H-NQW[dA][ξThz(5,5-Me2)]GHLM-NH2) tested on EKVX gave GI50: > 25 µM (inactive)

CC(C)(C)c1ccc2c(c1)S(=O)(=O)Nc1ccccc1NS(=O)(=O)c1cc(C(C)(C)C)ccc1OCCOCCOCCO2 tested on EKVX gave GI50: 71.8 µM (inactive)

CC(C)(C)c1ccc2c(c1)C(=O)c1ccccc1C2=O tested on EKVX gave GI50: 19 µM (inactive)

Cc1cc(S(=O)(=O)Nc2nc(N)nc(N(C)C)n2)c(S)cc1Cl tested on EKVX gave GI50: > 10 µM (inactive)

COc1ccc(/C=C2\N=C3NC(=O)C(N4CCOCC4)=C(N)N3C2=O)cc1 tested on EKVX gave GI50: 69.7 µM (inactive)

C=C(Nc1nc2ccc(C)cc2s1)C(=O)C(CC)C(=O)C(CC)CC1C(=O)NC(=O)NC1=O (stereo not drawn) tested on EKVX gave GI50: > 100 µM (inactive)

CN(N)/N=N/c1[nH]cnc1[N+](=O)[O-] tested on EKVX gave GI50: 94.8 µM (inactive)
